- TARGET SYSTEM: Tyrosine-protein kinase BTK (Homo sapiens)
- TEST SUMMARY: Inhibition of BTK in human Ramos-B cells assessed as suppression of BCR/anti-IgM-stimulated Ca2+ flux after 1 hr incubation in dark by FLIPR1 assay
pIC50: −log10 of the molar value.
Measured pIC50, listed per entry for reference.
PARAMETER: pIC50

                                   molecule  endpoint_result
0  Cc1c(-c2c(F)cc(C(N)=O)c3[nH]c4c(c23)CC[C@H](C(C)(C)O)C4)cccc1-n1c(=O)c2cccc(F)c2n(C)c1=O (atropisomer R) [BMS-986142]             8.05
1  Cc1c(-c2c(C#N)cc(C(N)=O)c3[nH]c4cc(C(C)(C)O)ccc4c23)cccc1-n1c(=O)c2cccc(F)c2n(C)c1=O             8.22
2  Cc1c(-c2ccc(C(N)=O)c3[nH]c4c(c23)CC[C@@H](C(C)(C)O)C4)cccc1-n1c(=O)c2cccc(F)c2n(C)c1=O             6.72
3  Cc1c(-c2c(F)cc(C(N)=O)c3[nH]c4c(c23)CC[C@H](C(C)(C)O)C4)cccc1-n1c(=O)c2cccc(F)c2n(C)c1=O [BMS-986142]             6.12
4  Cc1cc(C(N)=O)c2[nH]c3cc(C(C)(C)O)ccc3c2c1-c1cccc(-n2c(=O)c3cccc(F)c3n(C)c2=O)c1C             7.77
5  Cc1c(-c2ccc(C(N)=O)c3[nH]c4c(c23)CC[C@H](C(C)(C)O)C4)cccc1-n1c(=O)c2cccc(F)c2n(C)c1=O             7.20
6  Cc1c(-c2c(F)cc(C(N)=O)c3[nH]c4c(c23)CC[C@@H](C(C)(C)O)C4)cccc1-n1c(=O)c2cccc(F)c2n(C)c1=O             7.44

----------
- TEST SUMMARY: Drug metabolism in po dosed rat plasma assessed as isomerization of atropisomeric center after 24 hrs
- Assay type: ADME, organism-based
- EXPERIMENTAL CONTEXT: read-out: Drug metabolism
PARAMETER: metabolised at 24 h

                                   compound  endpoint_result
0  Cc1c(-c2c(F)cc(C(N)=O)c3[nH]c4c(c23)CC[C@H](C(C)(C)O)C4)cccc1-n1c(=O)c2cccc(F)c2n(C)c1=O (atropisomer R) [BMS-986142]             < 2%

----------
- TEST SUMMARY: Cmax in mouse at 5 mg/kg
- Type: ADME, organism-based
- Set-up: dose 5 mg/kg
- EXPERIMENTAL CONTEXT: in vivo
PARAMETER: Cmax (nM)

>>> print(df.to_string())
                  compound_structure_string  endpoint_result
0  Cc1c(-c2ccc(C(N)=O)c3[nH]c4cc(C(C)(C)O)ccc4c23)cccc1-n1c(=O)c2cccc(F)c2n(C)c1=O             2200

----------
- TEST SUMMARY: Oral bioavailability in dog at 2 mg/kg
- Format: ADME, organism-based, Canis lupus familiaris
- EXPERIMENTAL CONTEXT: in vivo
PARAMETER: bioavailability (%)

In [3]: df
Out[3]:
                                   compound        parameter  unit_descriptor  endpoint_result
0  Cc1c(-c2c(F)cc(C(N)=O)c3[nH]c4c(c23)CC[C@H](C(C)(C)O)C4)cccc1-n1c(=O)c2cccc(F)c2n(C)c1=O (atropisomer R)  bioavailability                %              100

----------
- TEST SUMMARY: Oral bioavailability in rat at 5 mg/kg
- Assay type: ADME, organism-based
- EXPERIMENTAL CONTEXT: in vivo
PARAMETER: bioavailability

>>> print(df.to_string())
                                   compound  endpoint_result
0  Cc1c(-c2c(F)cc(C(N)=O)c3[nH]c4c(c23)CC[C@H](C(C)(C)O)C4)cccc1-n1c(=O)c2cccc(F)c2n(C)c1=O (atropisomer R)              67%

----------
# Ratio IC50 values compiled below
- Organism: Homo sapiens
- TEST SUMMARY: Selectivity ratio of IC50 for JAK2 (unknown origin) to IC50 for full length recombinant human His-tagged BTK expressed in baculovirus
PARAMETER: Ratio IC50

>>> df
                                   compound   parameter  comparative_sign  endpoint_result
0  Cc1c(-c2c(C#N)cc(C(N)=O)c3[nH]c4cc(C(C)(C)O)ccc4c23)cccc1-n1c(=O)c2cccc(F)c2n(C)c1=O  Ratio IC50                 =             7100
1  Cc1c(-c2c(F)cc(C(N)=O)c3[nH]c4c(c23)CC[C@@H](C(C)(C)O)C4)cccc1-n1c(=O)c2cccc(F)c2n(C)c1=O  Ratio IC50                 =              910
2  Cc1c(-c2c(F)cc(C(N)=O)c3[nH]c4c(c23)CC[C@H](C(C)(C)O)C4)cccc1-n1c(=O)c2cccc(F)c2n(C)c1=O (atropisomer R)  Ratio IC50                 >            10000
3  Cc1c(-c2ccc(C(N)=O)c3[nH]c4c(c23)CC[C@@H](C(C)(C)O)C4)cccc1-n1c(=O)c2cccc(F)c2n(C)c1=O  Ratio IC50                 =              180
4  Cc1c(-c2ccc(C(N)=O)c3[nH]c4c(c23)CC[C@H](C(C)(C)O)C4)cccc1-n1c(=O)c2cccc(F)c2n(C)c1=O  Ratio IC50                 =              740

----------
- TARGET SYSTEM: Tyrosine-protein kinase BTK (Homo sapiens, UniProt Q06187)
- Sequence (Q06187 whole entry): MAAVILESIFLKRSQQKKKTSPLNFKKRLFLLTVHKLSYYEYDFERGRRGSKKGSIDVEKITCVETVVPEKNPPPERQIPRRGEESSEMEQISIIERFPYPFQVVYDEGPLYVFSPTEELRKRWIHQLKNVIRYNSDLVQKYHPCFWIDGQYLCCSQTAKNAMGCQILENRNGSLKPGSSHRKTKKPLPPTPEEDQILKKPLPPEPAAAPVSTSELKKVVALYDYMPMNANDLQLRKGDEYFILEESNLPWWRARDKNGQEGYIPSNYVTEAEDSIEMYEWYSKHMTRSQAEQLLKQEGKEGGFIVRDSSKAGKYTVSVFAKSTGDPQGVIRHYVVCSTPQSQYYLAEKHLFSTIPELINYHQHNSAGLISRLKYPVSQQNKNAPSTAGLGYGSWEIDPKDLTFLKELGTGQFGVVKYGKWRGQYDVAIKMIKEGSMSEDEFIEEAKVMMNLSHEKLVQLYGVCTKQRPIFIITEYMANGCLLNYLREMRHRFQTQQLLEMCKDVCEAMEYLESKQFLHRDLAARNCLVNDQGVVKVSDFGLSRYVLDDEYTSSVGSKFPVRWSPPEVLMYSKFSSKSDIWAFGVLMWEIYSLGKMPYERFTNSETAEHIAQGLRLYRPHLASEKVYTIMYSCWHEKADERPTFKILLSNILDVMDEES
- TEST SUMMARY: Inhibition of BTK in human peripheral B cells assessed as suppression of BCR/anti-IgM/IgG-stimulated CD86 surface expression
- Format: cell-based
PARAMETER: IC50 (nM)

                                   molecule  endpoint_result
0  Cc1c(-c2c(F)cc(C(N)=O)c3[nH]c4c(c23)CC[C@H](C(C)(C)O)C4)cccc1-n1c(=O)c2cccc(F)c2n(C)c1=O (atropisomer R)                4

----------
- TEST SUMMARY: Stability of the compound in methanol at 37 degC assessed as kinetic half life
- Format: physicochemical
PARAMETER: half-life (h)

>>> print(df.to_string())
                  compound_structure_string  parameter  endpoint_result
0  Cc1c(-c2ccc(C(N)=O)c3[nH]c4cc(C(C)(C)O)ccc4c23)cccc1-n1c(=O)c2cccc(F)c2n(C)c1=O  half-life             1.15

----------
- TEST SUMMARY: AUC in mouse at 5 mg/kg
- Format: ADME, organism-based
- EXPERIMENTAL CONTEXT: in vivo
PARAMETER: AUC

                  compound_structure_string  parameter  endpoint_result
0  Cc1c(-c2ccc(C(N)=O)c3[nH]c4cc(C(C)(C)O)ccc4c23)cccc1-n1c(=O)c2cccc(F)c2n(C)c1=O        AUC          25 µM·h

----------
- TEST SUMMARY: Oral bioavailability in mouse at 3 mg/kg
- Assay type: ADME, organism-based
- EXPERIMENTAL CONTEXT: in vivo
PARAMETER: bioavailability

In [3]: df
Out[3]:
                                   compound  endpoint_result
0  Cc1c(-c2c(F)cc(C(N)=O)c3[nH]c4c(c23)CC[C@H](C(C)(C)O)C4)cccc1-n1c(=O)c2cccc(F)c2n(C)c1=O (atropisomer R) [BMS-986142]              93%

----------
- TEST SUMMARY: Cmax in mouse at 10 mg/kg, iv or po
- Format: ADME, organism-based
- EXPERIMENTAL CONTEXT: in vivo
# Cmax per entry
PARAMETER: Cmax (µM)

In [3]: df
Out[3]:
                                   compound  unit_descriptor  endpoint_result
0  Cc1cc(C(N)=O)c2[nH]c3cc(C(C)(C)O)ccc3c2c1-c1cccc(-n2c(=O)c3cccc(F)c3n(C)c2=O)c1C               µM              6.3
1  Cc1c(-c2c(F)cc(C(N)=O)c3[nH]c4cc(C(C)(C)O)ccc4c23)cccc1-n1c(=O)c2cccc(F)c2n(C)c1=O               µM              5.5
2  Cc1c(-c2c(F)cc(C(N)=O)c3[nH]c4c(c23)CC[C@H](C(C)(C)O)C4)cccc1-n1c(=O)c2cccc(F)c2n(C)c1=O (atropisomer R)               µM              4.9
3  Cc1c(-c2c(Cl)cc(C(N)=O)c3[nH]c4c(c23)CC[C@H](C(C)(C)O)C4)cccc1-n1c(=O)c2cccc(F)c2n(C)c1=O               µM              4.5
4  Cc1c(-c2c(C#N)cc(C(N)=O)c3[nH]c4cc(C(C)(C)O)ccc4c23)cccc1-n1c(=O)c2cccc(F)c2n(C)c1=O               µM             0.12
5  Cc1c(-c2c(Cl)cc(C(N)=O)c3[nH]c4cc(C(C)(C)O)ccc4c23)cccc1-n1c(=O)c2cccc(F)c2n(C)c1=O               µM              4.7
6  Cc1c(-c2ccc(C(N)=O)c3[nH]c4c(c23)CC[C@H](C(C)(C)O)C4)cccc1-n1c(=O)c2cccc(F)c2n(C)c1=O               µM              3.6
